# Test system: HCT 116 cells
# ASSAY TEXT: Cell growth assay (CellTiter-Glo 2.0), HCT 116 MSI-H cell line
# TEST SETTINGS: Homo sapiens, HCT-116, 120 h, read-out: Cell Growth Inhibition GI50 HCT-116
Item-by-item account of log10(GI50)
REPORTED PROPERTY: log10(GI50) (log10 of the value in nM)

>>> test_value("CC1C(=CC#N)CN1C(=O)c1cnc(C2CC2)nc1Oc1ccccc1 (racemic)")
3.93
>>> test_value("CC(C)(C)c1ncc(C(=O)N2CC(=CS(C)(=O)=O)C2)c(Oc2ccccc2)n1")
2.01
>>> test_value("CCC(F)(F)c1ncc(C(=O)N[C@H](/C=C/S(C)(=O)=O)C2CC2)c(Oc2ccccc2)n1")
1.22
>>> test_value("C[C@@H](/C=C/S(C)(=O)=O)NC(=O)c1cnc(C2CCC2)nc1Oc1ccccc1")
2.43
>>> test_value("CC(C)(C)c1ncc(C(=O)N[C@H](/C=C/S(C)(=O)=O)C2CC2)c(Oc2ccccc2)n1")
1.37
>>> test_value("C[C@@H](/C=C/S(C)(=O)=O)NC(=O)c1cnc(C2CCCCC2)nc1Oc1ccccc1")
2.63
>>> test_value("CC(C)(C)c1ncc(C(=O)N[C@H](/C=C/S(C)(=O)=O)C2CC2)c(O[C@H]2C[C@@H]3C[C@@H]3C2)n1")
2.18
>>> test_value("C=C(C#N)CNC(=O)c1cnc(C2CC2)nc1Oc1ccccc1")
3.52

====

# ASSAY TARGET: hWRN(519-1227)_C-H3CV-GFP-10His (Homo sapiens)
# ASSAY TEXT: Helicase Assay for WRN Inhibition (ATP-dependent, fluorescence based)
# TEST SETTINGS: WRN Helicase IC50, 30 min preincubation with ATP, 30 min reaction
Known IC50 of a selection of compounds
REPORTED PROPERTY: IC50 (µM)

>>> test_value("C[C@@H](/C=C/S(C)(=O)=O)NC(=O)c1cc2c(nc1Oc1ccccc1)CCC2 [Example 243]")
43
>>> test_value("CCc1cccc(Oc2nc(C3CCCC3)ncc2C(=O)N[C@@H](C)/C=C/S(C)(=O)=O)c1 [Example 108]")
87
>>> test_value("C[C@@H](/C=C/S(C)(=O)=O)NC(=O)c1cnc(C2CCCC2)nc1Oc1ccccc1F [Example 115]")
2.9
>>> test_value("C[C@@H](/C=C/S(C)(=O)=O)NC(=O)c1cnc(C2=CCCC2)cc1Oc1ccccc1 [Example 200]")
4.5

====

# ASSAY TARGET: WRN C727 (Homo sapiens, UniProt Q14191)
# Construct: endogenous in cells; host or cells: OCI-AML2
# Sequence (Q14191 whole entry): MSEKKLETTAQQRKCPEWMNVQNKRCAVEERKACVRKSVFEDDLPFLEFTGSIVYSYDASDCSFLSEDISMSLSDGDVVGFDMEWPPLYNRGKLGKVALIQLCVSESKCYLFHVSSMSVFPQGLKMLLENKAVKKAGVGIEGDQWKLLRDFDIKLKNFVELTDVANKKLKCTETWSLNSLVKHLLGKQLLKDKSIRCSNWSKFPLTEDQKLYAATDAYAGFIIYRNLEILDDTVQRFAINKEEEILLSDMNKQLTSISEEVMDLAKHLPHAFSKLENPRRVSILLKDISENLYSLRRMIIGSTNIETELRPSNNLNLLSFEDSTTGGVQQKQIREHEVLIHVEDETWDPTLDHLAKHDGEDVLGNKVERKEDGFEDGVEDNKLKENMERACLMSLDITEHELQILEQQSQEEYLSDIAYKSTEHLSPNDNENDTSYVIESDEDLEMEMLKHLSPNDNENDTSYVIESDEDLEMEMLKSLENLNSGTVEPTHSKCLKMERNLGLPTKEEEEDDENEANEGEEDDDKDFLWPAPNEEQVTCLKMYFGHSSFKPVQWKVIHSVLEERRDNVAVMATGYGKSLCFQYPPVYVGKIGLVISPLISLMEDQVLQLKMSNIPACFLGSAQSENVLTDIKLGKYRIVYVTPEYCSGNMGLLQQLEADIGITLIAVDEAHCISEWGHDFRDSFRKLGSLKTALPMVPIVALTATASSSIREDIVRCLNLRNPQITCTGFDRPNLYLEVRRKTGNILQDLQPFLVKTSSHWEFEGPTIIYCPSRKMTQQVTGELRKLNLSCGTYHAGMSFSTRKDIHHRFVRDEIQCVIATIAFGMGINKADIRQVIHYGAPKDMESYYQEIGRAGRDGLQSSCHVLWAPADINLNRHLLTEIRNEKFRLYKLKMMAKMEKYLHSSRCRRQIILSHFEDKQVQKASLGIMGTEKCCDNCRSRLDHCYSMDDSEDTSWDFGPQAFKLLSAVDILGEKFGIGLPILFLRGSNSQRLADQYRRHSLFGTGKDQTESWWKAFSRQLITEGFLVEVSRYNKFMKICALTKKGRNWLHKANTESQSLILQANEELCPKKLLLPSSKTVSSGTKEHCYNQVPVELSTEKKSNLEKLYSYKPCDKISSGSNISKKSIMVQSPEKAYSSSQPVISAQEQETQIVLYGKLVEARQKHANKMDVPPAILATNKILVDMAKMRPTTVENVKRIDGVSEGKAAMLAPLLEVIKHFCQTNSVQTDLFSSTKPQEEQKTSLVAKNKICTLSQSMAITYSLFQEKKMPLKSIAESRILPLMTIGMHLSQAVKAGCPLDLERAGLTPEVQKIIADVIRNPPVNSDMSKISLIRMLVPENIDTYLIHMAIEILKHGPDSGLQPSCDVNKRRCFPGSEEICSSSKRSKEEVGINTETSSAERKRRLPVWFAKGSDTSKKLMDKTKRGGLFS
# ASSAY TEXT: Target engagement, in vitro (lysate), OCI-AML2
# Assay type: binding
# TEST SETTINGS: read-out: OCI-AML2 WRN C727 TE50 in vitro (lysate)
Decide using IC50 alone. Strictly below 1000 nM: Yes. Equal to or above 1000 nM: No.

>>> category_label("C[C@@H](/C=C/S(C)(=O)=O)NC(=O)c1cnc(C2CCCC2)nc1OC1CCCCCC1")
"No"
>>> category_label("C[C@@H](/C=C/S(C)(=O)=O)NC(=O)c1cnc(N2CCC(F)(F)C2)nc1Oc1ccccc1")
"No"
>>> category_label("COC(=O)C=C1CN(C(=O)c2cnc(C(C)(C)C)nc2Oc2ccccc2)C1")
"No"
>>> category_label("CC(C)(C)c1ncc(C(=O)N[C@H](/C=C/S(C)(=O)=O)CC2CC2)c(Oc2ccccc2)n1")
"No"
>>> category_label("CS(=O)(=O)/C=C/[C@@H](NC(=O)c1cnc(C(F)(F)C2CC2)nc1Oc1ccccc1)C1CCC1")
"Yes"
>>> category_label("CS(=O)(=O)/C=C\\[C@H](Cc1ccccc1)NC(=O)c1cnc(C2CC2)nc1Oc1ccccc1 (single isomer, unassigned)")
"No"
>>> category_label("CS(=O)(=O)/C=C/[C@@H](NC(=O)c1cc2c(nc1Oc1ccccc1)C(F)(F)CC2)C1CC1")
"Yes"

====

# Tested on: HCT 116 cells
# ASSAY TEXT: Cell growth assay (CellTiter-Glo 2.0), HCT 116 MSI-H cell line
# TEST SETTINGS: Homo sapiens, HCT-116, 120 h, read-out: Cell Growth Inhibition GI50 HCT-116
Categorize each record by its GI50 using bucket 1 (below 300 nM), bucket 2 (300 nM to below 800 nM), bucket 3 (800 nM or more)

>>> category_label("C[C@@H](/C=C/S(C)(=O)=O)NC(=O)c1cnc(C2(F)CC2)nc1Oc1ccccc1 [Example 99]")
"bucket 2"
>>> category_label("CN(C)C(=O)C[C@@H](/C=C/S(C)(=O)=O)NC(=O)c1cnc(C(C)(C)C)nc1Oc1ccccc1 [Example 71]")
"bucket 1"
>>> category_label("CC(F)(F)c1cc(Oc2ccccc2)c(C(=O)N[C@H](/C=C/S(C)(=O)=O)C2CC2)cn1 [Example 231]")
"bucket 1"
>>> category_label("[2H]c1c([2H])c([2H])c(Oc2nc(C(F)(F)C3CC3)ncc2C(=O)N[C@H](/C=C/S(C)(=O)=O)C2CC2)c([2H])c1[2H] [Example 229]")
"bucket 1"
>>> category_label("C=C(C#N)CNC(=O)c1cnc(C(C)(C)C)nc1Oc1ccccc1 [Example 270]")
"bucket 2"
>>> category_label("CS(=O)(=O)/C=C/CNC(=O)c1cnc(C2CCCC2)nc1Oc1ccc(Cl)cc1 [Example 120]")
"bucket 3"
>>> category_label("CC1(Cc2ncc(C(=O)N3CC(=CS(C)(=O)=O)C3)c(Oc3ccccc3)n2)CC1 [Example 41]")
"bucket 2"
>>> category_label("C[C@@H](/C=C/S(C)(=O)=O)NC(=O)c1cnc(C2CCCC2)nc1Oc1ccc(F)cc1 [Example 113]")
"bucket 3"
>>> category_label("C[C@@H](/C=C/S(C)(=O)=O)NC(=O)c1cnc(C2CCCC2)nc1Oc1ccccc1F [Example 115]")
"bucket 3"
>>> category_label("C[C@@H](/C=C/S(C)(=O)=O)NC(=O)c1ccc(C2=CCCC2)nc1Oc1ccccc1 [Example 202]")
"bucket 3"
>>> category_label("CS(=O)(=O)/C=C/[C@@H](NC(=O)c1cnc(C2(C(F)(F)F)CC2)nc1Oc1ccccc1)C1CC1 [Example 102]")
"bucket 1"
>>> category_label("C[C@@H](/C=C/S(C)(=O)=O)NC(=O)c1cnc(CC2CCCC2)nc1Oc1ccccc1 [Example 54]")
"bucket 2"
>>> category_label("CC(C)(C)c1ncc(C(=O)N[C@H](/C=C/S(C)(=O)=O)Cc2ccccc2)c(Oc2ccccc2)n1 (single isomer, unassigned) [Example 60]")
"bucket 1"
>>> category_label("CS(=O)(=O)/C=C/[C@@H](NC(=O)c1cnc(CC(F)(F)F)nc1Oc1ccccc1)C1CC1 [Example 261]")
"bucket 2"
>>> category_label("N#CC=C1CN(C(=O)c2cnc(C3CC3)nc2Oc2ccccc2)C1 [Example 264]")
"bucket 3"
>>> category_label("COC(=O)C=C1CN(C(=O)c2cnc(C(C)(C)C)nc2Oc2ccccc2)C1 [Example 191]")
"bucket 1"

====

# ASSAY TARGET: hWRN(519-1227)_C-H3CV-GFP-10His (Homo sapiens, UniProt Q14191)
# Sequence (Q14191 519-1227): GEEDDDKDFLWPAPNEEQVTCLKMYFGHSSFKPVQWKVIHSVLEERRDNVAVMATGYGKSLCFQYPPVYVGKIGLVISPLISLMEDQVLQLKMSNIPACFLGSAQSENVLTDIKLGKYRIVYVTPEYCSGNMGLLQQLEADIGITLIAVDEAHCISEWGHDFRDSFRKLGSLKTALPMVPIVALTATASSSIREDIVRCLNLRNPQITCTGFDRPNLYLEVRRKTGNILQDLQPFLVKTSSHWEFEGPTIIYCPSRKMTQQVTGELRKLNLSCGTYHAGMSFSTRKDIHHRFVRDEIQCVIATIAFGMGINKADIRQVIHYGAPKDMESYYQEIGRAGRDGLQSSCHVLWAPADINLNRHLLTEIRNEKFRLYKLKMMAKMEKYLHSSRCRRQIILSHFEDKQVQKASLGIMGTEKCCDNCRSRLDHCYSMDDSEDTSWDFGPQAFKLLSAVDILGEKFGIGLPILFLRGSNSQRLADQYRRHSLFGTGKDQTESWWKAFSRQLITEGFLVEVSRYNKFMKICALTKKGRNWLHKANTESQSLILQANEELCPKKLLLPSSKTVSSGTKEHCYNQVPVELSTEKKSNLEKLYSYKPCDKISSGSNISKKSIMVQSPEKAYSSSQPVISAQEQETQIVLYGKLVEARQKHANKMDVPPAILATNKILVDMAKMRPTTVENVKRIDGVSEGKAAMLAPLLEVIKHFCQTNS
# ASSAY TEXT: Helicase Assay for WRN Inhibition (ATP-dependent, fluorescence based)
# TEST SETTINGS: WRN Helicase IC50, 30 min preincubation with ATP, 30 min reaction
REPORTED PROPERTY: log10 IC50 (log10 of the value in µM)

>>> test_value("COc1ncc(C(=O)N[C@H](/C=C/S(C)(=O)=O)C2CC2)c(Oc2ccccc2)n1")
1.30
>>> test_value("C[C@@H](/C=C/S(C)(=O)=O)NC(=O)c1cnc(OC2CCCC2)nc1Oc1ccccc1")
0.61
>>> test_value("C[C@@H](/C=C/S(C)(=O)=O)NC(=O)c1cnc(C2CC2)nc1OCC1CC1")
1.63
>>> test_value("C[C@@H](/C=C/S(C)(=O)=O)NC(=O)c1cnc(C23CC(C2)C3)nc1Oc1ccccc1")
-0.35
>>> test_value("CC(C)Cc1ncc(C(=O)N[C@@H](C)/C=C/S(C)(=O)=O)c(Oc2ccccc2)n1")
1.00
>>> test_value("C[C@@H](/C=C/S(C)(=O)=O)NC(=O)c1cnc(N2CCC(F)(F)C2)nc1Oc1ccccc1")
1.68
>>> test_value("C=C(C#N)CNC(=O)c1cnc(C(C)(F)F)nc1Oc1ccccc1")
-0.01
>>> test_value("[2H]c1c([2H])c([2H])c(Oc2nc(C3CC3)ncc2C(=O)N[C@@H](C)/C=C/S(C)(=O)=O)c([2H])c1[2H]")
0.28
>>> test_value("CC(F)(F)c1cc(Oc2ccccc2)c(C(=O)N[C@H](/C=C/S(C)(=O)=O)C2CC2)cn1")
-0.68
>>> test_value("C[C@@H](/C=C/S(C)(=O)=O)NC(=O)c1cnc(C2CC2)nc1OC1CCC(F)(F)C1 (stereo partly shown)")
1.72
>>> test_value("C[C@@H](/C=C/S(C)(=O)=O)NC(=O)c1ccc(C2=CCCC2)nc1Oc1ccccc1")
0.93
>>> test_value("C[C@@H](/C=C/S(C)(=O)=O)NC(=O)c1cnc(C2CCCC2)nc1OC1CCC1")
0.63
>>> test_value("CS(=O)(=O)/C=C/[C@@H](NC(=O)c1cnc(N2CC(F)(F)C2)nc1Oc1ccccc1)C1CC1")
0.46
>>> test_value("CS(=O)(=O)/C=C/[C@@H](NC(=O)c1cnc(OCC(F)(F)F)nc1Oc1ccccc1)C1CC1")
0.90
>>> test_value("C[C@@H](/C=C/S(C)(=O)=O)NC(=O)c1cnc(N2C3CCC2CC3)nc1Oc1ccccc1")
0.56
>>> test_value("CS(=O)(=O)/C=C/CNC(=O)c1cnc(C2CC2)nc1Oc1ccccc1")
0.88
